Where a SMILES comes first, the peptide text is derived from it. Bridges are numbered along the chain shown (N, C = ends). The star is where a group is joined. X2 = CN(C)c1ccc2c(-c3cc(C(=O)*)ccc3C(=O)[O-])c3ccc(=[N+](C)C)cc-3oc2c1; X1 = C[N+]1=C(/C=C/C=C2/N(CCCCCC(=O)*)c3ccccc3C2(C)C)C(C)(C)c2ccccc21; BODIPY(FL) = CC1=CC(C)=[N+]2C1=Cc1ccc(CCC(=O)*)n1[B-]2(F)F
quantityName: emission wavelength (Em) (nm)
Numbers only, in nm.

Guide cases for emission wavelength (Em), answers given:
C[C@@H]1NC(=O)[C@@H]2CSSC[C@H](NC(=O)CNC(=O)c3ccc(C(=O)[O-])c(-c4c5ccc(=[N+](C)C)cc-5oc5cc(N(C)C)ccc45)c3)C(=O)N[C@@H](CSSC[C@@H](C(N)=O)NC(=O)[C@H](Cc3c[nH]cn3)NC(=O)[C@H](CCC(=O)O)NC(=O)[C@H](Cc3c[nH]cn3)NC1=O)C(=O)N[C@@H](CO)C(=O)N[C@@H](CC(N)=O)C(=O)N1CCC[C@H]1C(=O)N1CCC[C@H]1C(=O)N2 [LvIB-R] (X2-GCCSNPPCAHEHC-NH2; disulfide 2-8, 3-13); 580
C[C@@H]1NC(=O)[C@@H]2CSSC[C@H](NC(=O)CNC(=O)CCCCCN3/C(=C/C=C/C4=[N+](C)c5ccccc5C4(C)C)C(C)(C)c4ccccc43)C(=O)N[C@@H](CSSC[C@@H](C(N)=O)NC(=O)[C@H](Cc3c[nH]cn3)NC(=O)[C@H](CCC(=O)O)NC(=O)[C@H](Cc3c[nH]cn3)NC1=O)C(=O)N[C@@H](CO)C(=O)N[C@@H](CC(N)=O)C(=O)N1CCC[C@H]1C(=O)N1CCC[C@H]1C(=O)N2 [LvIB-C] (X1-GCCSNPPCAHEHC-NH2; disulfide 2-8, 3-13); 570

// below: emission wavelength (Em) requested for another compound
Which measured emission wavelength (Em) value corresponds to CC1=CC(C)=[N+]2C1=Cc1ccc(CCC(=O)NCC(=O)N[C@H]3CSSC[C@@H]4NC(=O)[C@@H]5CCCN5C(=O)[C@@H]5CCCN5C(=O)[C@H](CC(N)=O)NC(=O)[C@H](CO)NC(=O)[C@H](CSSC[C@@H](C(N)=O)NC(=O)[C@H](Cc5c[nH]cn5)NC(=O)[C@H](CCC(=O)O)NC(=O)[C@H](Cc5c[nH]cn5)NC(=O)[C@H](C)NC4=O)NC3=O)n1[B-]2(F)F [LvIB-B] ({BODIPY(FL)}-GCCSNPPCAHEHC-NH2; disulfide 2-8, 3-13) ?
510

----------
Where a SMILES comes first, the peptide text is derived from it. Bridges are numbered along the chain shown (N, C = ends). The star is where a group is joined. X2 = CN(C)c1ccc2c(-c3cc(C(=O)*)ccc3C(=O)[O-])c3ccc(=[N+](C)C)cc-3oc2c1; X1 = C[N+]1=C(/C=C/C=C2/N(CCCCCC(=O)*)c3ccccc3C2(C)C)C(C)(C)c2ccccc21; BODIPY(FL) = CC1=CC(C)=[N+]2C1=Cc1ccc(CCC(=O)*)n1[B-]2(F)F
For each record, write down the corresponding excitation wavelength (Ex).
Numbers only, in nm.

Completed entries (count: 2):
C[C@@H]1NC(=O)[C@@H]2CSSC[C@H](NC(=O)CNC(=O)c3ccc(C(=O)[O-])c(-c4c5ccc(=[N+](C)C)cc-5oc5cc(N(C)C)ccc45)c3)C(=O)N[C@@H](CSSC[C@@H](C(N)=O)NC(=O)[C@H](Cc3c[nH]cn3)NC(=O)[C@H](CCC(=O)O)NC(=O)[C@H](Cc3c[nH]cn3)NC1=O)C(=O)N[C@@H](CO)C(=O)N[C@@H](CC(N)=O)C(=O)N1CCC[C@H]1C(=O)N1CCC[C@H]1C(=O)N2 [LvIB-R] (X2-GCCSNPPCAHEHC-NH2; disulfide 2-8, 3-13); 555
C[C@@H]1NC(=O)[C@@H]2CSSC[C@H](NC(=O)CNC(=O)CCCCCN3/C(=C/C=C/C4=[N+](C)c5ccccc5C4(C)C)C(C)(C)c4ccccc43)C(=O)N[C@@H](CSSC[C@@H](C(N)=O)NC(=O)[C@H](Cc3c[nH]cn3)NC(=O)[C@H](CCC(=O)O)NC(=O)[C@H](Cc3c[nH]cn3)NC1=O)C(=O)N[C@@H](CO)C(=O)N[C@@H](CC(N)=O)C(=O)N1CCC[C@H]1C(=O)N1CCC[C@H]1C(=O)N2 [LvIB-C] (X1-GCCSNPPCAHEHC-NH2; disulfide 2-8, 3-13); 550

Now consider the entry below.
Look up excitation wavelength (Ex): CC1=CC(C)=[N+]2C1=Cc1ccc(CCC(=O)NCC(=O)N[C@H]3CSSC[C@@H]4NC(=O)[C@@H]5CCCN5C(=O)[C@@H]5CCCN5C(=O)[C@H](CC(N)=O)NC(=O)[C@H](CO)NC(=O)[C@H](CSSC[C@@H](C(N)=O)NC(=O)[C@H](Cc5c[nH]cn5)NC(=O)[C@H](CCC(=O)O)NC(=O)[C@H](Cc5c[nH]cn5)NC(=O)[C@H](C)NC4=O)NC3=O)n1[B-]2(F)F [LvIB-B] ({BODIPY(FL)}-GCCSNPPCAHEHC-NH2; disulfide 2-8, 3-13)
505
